Test: chemical genetic growth profiling, strain panel (AID 1159580);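 further: tested at 20 µM; growth read once vehicle control cultures reached saturation at 30 °C; 1 = growth at the plate median or of vehicle wells; lower values mean less growth of the strain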
Settings: S. cerevisiae deletion strains, growth OD, locus YOR290C, strain snf2, stronger effect = lower value
Among all 5,500 compounds or so, about 2,000 (36%) were called active. Roughly 18% stayed inconclusive and do not appear here. This is one part of the list.
measurement_kind: normalized growth

Previously resolved entries follow.
{"molecule": "COC(=O)c1c(C)cc(O)cc1O", "normalized growth": "1.01 (inactive)"}
{"molecule": "CCC(=O)c1c(O)cc(O)cc1O", "normalized growth": "0.973 (inactive)"}
{"molecule": "O=C(O[C@@H]1Cc2c(O)cc(O)cc2O[C@@H]1c1cc(O)c(=O)c2c(O)c(O)cc([C@H]3Oc4cc(O)cc(O)c4C[C@H]3O)c2c1)c1cc(O)c(O)c(O)c1", "normalized growth": "0.487 (active)"}
{"molecule": "C[C@]12C=CC(=O)C=C1CCC1C2[C@@H](O)C[C@@]2(C)C1CC[C@]2(O)C(=O)COP(=O)(O)O (stereo not given in full)", "normalized growth": "1.02 (inactive)"}

# evaluate next
State its normalized growth: CCOC(=O)c1c(C)cc(OC)cc1O
0.929 (inactive)

----------
Listed molecules paired with reported normalized growth
Experiment: chemical genetic growth profiling, strain panel (AID 1159580)
Conditions: S. cerevisiae deletion strains, growth OD, locus YDL192W, strain arf1, stronger effect = lower value
Screen size: about 5,500 compounds; about 2,000 (36%) were called active. Not shown: some 18% with an inconclusive outcome. This is one part of the list.

Specify measured normalized growth for O=C(O[C@@H]1Cc2c(O)cc(O)cc2O[C@@H]1c1cc(O)c(=O)c2c(O)c(O)cc([C@H]3Oc4cc(O)cc(O)c4C[C@H]3OC(=O)c3cc(O)c(O)c(O)c3)c2c1)c1cc(O)c(O)c(O)c1 .
0.955 (inactive)

For the molecule COc1ccc(-c2cc(=O)c3c(O)cc(O[C@@H]4O[C@H](CO[C@H]5O[C@H](C)[C@@H](O)[C@H](O)[C@@H]5O)[C@@H](O)[C@H](O)[C@H]4O)cc3o2)cc1O , report normalized growth.
0.985 (inactive)

Report normalized growth, nothing else, for this molecule: COc1cc(O)c2c(=O)c(O)c(-c3ccc(O)c(O)c3)oc2c1
0.986 (inactive)

Look up and state reported normalized growth for COc1ccc2c(c1)CCC1C2CCC2(C)C1C[C@@H](O)C2O (stereo not given in full)
0.997 (inactive)

----------
Assay: chemical genetic growth profiling, strain panel (AID 1159580)
Details: S. cerevisiae deletion strains, growth OD, locus YBL061C, strain skt5, stronger effect = lower value
The whole screen tested about 5,500 compounds, of which about 2,000 (36%) were called active. Not shown: some 18% with an inconclusive outcome. The list shows a part of the results.
measurement_kind: normalized growth
Just the number.

// below: answered compounds
{"compound": "CNC(C)C(O)c1ccccc1 (centres undefined)", "normalized growth": 1}
{"compound": "CC[n+]1c(-c2ccccc2)c2cc(N)ccc2c2ccc(N)cc21", "normalized growth": 0.974}
{"compound": "CN[C@@H]1C(O)[C@@H](O[C@@H]2[C@@H](O)[C@H](O[C@H]3OC(CN)=CC[C@H]3N)[C@@H](N)C[C@H]2N)OC[C@]1(C)O (some centres undefined)", "normalized growth": 1.01}
{"compound": "CCCCCCC(C)OC(=O)COc1ccc(Cl)cc1Cl (centres undefined)", "normalized growth": 0.996}
{"compound": "CC(C1OC(C)(C)C(O)C1O)[C@@H]1CC[C@]2(C)C3=CCC4C(C)(C)C(=O)CC[C@]4(C)C3CC[C@@]12C (some centres undefined)", "normalized growth": 0.978}

In one line, give reported normalized growth of the entry CCN(Cc1ccncc1)C(=O)C(CO)c1ccccc1 (centres undefined) .
1.02

State, in one line, measured normalized growth of CCN[C@@H]1C[C@H](N)[C@@H](O[C@H]2OC(CN)=CC[C@H]2N)[C@H](O)[C@H]1OC1OC[C@](C)(O)[C@H](NC)[C@H]1O (some centres undefined)
1

# return recorded normalized growth for input CCC(c1ccc(O)cc1)C(CC)c1ccc(O)cc1 (centres undefined)
0.982

Give the reported normalized growth for this compound. CCC(N)C(O)c1ccc(O)c(O)c1 (centres undefined)
0.99

----------
Parameter normalized growth: see the listing below.
Assay: chemical genetic growth profiling, strain panel (AID 1159580)
Settings: S. cerevisiae deletion strains, growth OD, locus YJR075W, strain HOC1, stronger effect = lower value
Out of some 5,500 compounds screened, about 2,000 (36%) were called active. Inconclusive results (about 18%) are left out. The list shows a part of the results.

Indicate the recorded normalized growth value for this molecule: N[C@@H](COP(=O)(O)O)C(=O)O
0.984 (inactive)

# return recorded normalized growth for input O=S(=O)(c1cccc2c(I)cccc12)N1CCCNCC1
1.01 (inactive)

----------
Assay: chemical genetic growth profiling, strain panel (AID 1159580)
Settings: S. cerevisiae deletion strains, growth OD, locus YNR049C, strain mso1, stronger effect = lower value
About 2,000 (36%) of roughly 5,500 compounds were called active. Another 18% or so got no clear call; they are omitted. Some of the results follow.
Documented normalized growth across a set of molecules
Give only the figure.

{"molecule": "CCCCCCC(C)OC(=O)COc1ccc(Cl)cc1Cl (stereo not given)", "normalized growth": 0.984}

--- query ---
Please give the documented normalized growth of C[C@@H]([C@H](O)c1ccccc1)N(C)C
1.01

----------
Experiment: chemical genetic growth profiling, strain panel (AID 1159580);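 further: tested at 20 µM; growth read once vehicle control cultures reached saturation at 30 °C; 1 = growth at the plate median or of vehicle wells; lower values mean less growth of the strain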
Conditions: S. cerevisiae deletion strains, growth OD, locus YMR231W, strain pep5
The whole screen tested about 5,500 compounds, of which about 2,000 (36%) were called active. Not shown: some 18% with an inconclusive outcome. Rule as the data show it: active = normalized growth mostly below about 0.91 (no sharp cut-off); inconclusive = no clear call, values can overlap the other calls; inactive = mostly above about 0.92. The list shows a part of the results.
Pick one: active, inactive

Returns: the outcome recorded for C[C@]12CCC3c4ccc(O)cc4CCC3C1CC[C@@H]2O (stereo partly specified) in this assay.
inactive

Short answer needed: outcome of this test for CCCCCc1c2c(cc(O)c1C(=O)O)OC(=O)c1c(cc(OC)cc1C(=O)CCCC)O2 ?
inactive

For COc1ccccc1/C=C\C(=O)O , which call appears in the assay record?
inactive

Call for entry CC(=O)[C@@]1(O)CCC2C3C[C@H](C)C4=CC(=O)C=CC4(C)[C@@]3(F)[C@@H](O)C[C@@]21C (stereo partly specified) :
inactive

Would you mind telling me which call this test gave CCCCCC(=O)Cc1cc(O)cc(O)c1C(=O)Oc1cc(CC(=O)CCCCC)c(C(=O)O)c(OC)c1 ?
inactive

----------
Assay: chemical genetic growth profiling, strain panel (AID 1159580);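 further: tested at 20 µM; growth read once vehicle control cultures reached saturation at 30 °C; 1 = growth at the plate median or of vehicle wells; lower values mean less growth of the strain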
Conditions: S. cerevisiae deletion strains, growth OD, locus YCL061C, strain MRC1, stronger effect = lower value
Among all 5,500 compounds or so, about 2,000 (36%) were called active. Inconclusive results (about 18%) are left out. Some of the results follow.
The following compounds are shown together with reported normalized growth values.
Give your answer as a number; write no unit.

Here is how some compounds turned out for normalized growth.
{"compound": "COc1ccc(-c2oc3cc(O[C@H]4O[C@H](CO)[C@@H](O)[C@H](O)[C@H]4O)c(OC)c(O)c3c(=O)c2OC)cc1O", "normalized growth": 0.998}
{"compound": "CC(C1OC(C)(C)C(O)C1O)[C@@H]1CC[C@]2(C)C3=CCC4C(C)(C)C(=O)CC[C@]4(C)C3CC[C@@]12C (some centres not stated)", "normalized growth": 0.995}
{"compound": "COc1ccc(-c2cc(=O)c3c(O)cc(O[C@H]4O[C@H](CO[C@@H]5O[C@@H](C)[C@H](O)[C@@H](O)[C@H]5O)[C@@H](O)[C@H](O)[C@H]4O)cc3o2)cc1", "normalized growth": 1.01}

Next item in the queue.
// Input: C[C@]12CCC3c4ccc(O)cc4CCC3C1CC[C@@H]2O (some centres not stated) . Output its normalized growth only.
0.988

----------
Assay: chemical genetic growth profiling, strain panel (AID 1159580);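 further: tested at 20 µM; growth read once vehicle control cultures reached saturation at 30 °C; 1 = growth at the plate median or of vehicle wells; lower values mean less growth of the strain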
Details: S. cerevisiae deletion strains, growth OD, locus YOL006C, strain TOP1, stronger effect = lower value
Hit rate of the full screen: of about 5,500 compounds, about 2,000 (36%) were called active. Roughly 18% stayed inconclusive and do not appear here. Some of the results follow.
# maps each entry to its normalized growth
# output: bare number, no unit

{"compound": "CCN1C[C@]2(C)CC[C@H](OC)[C@]34C2[C@H](O)[C@]2(OCO[C@@]25C[C@H](OC)[C@H]2C[C@]3(O)C5[C@H]2O)C14", "meas_value": 1.02}
{"compound": "CCOC(=O)/C(C#N)=C/c1ccc(Br)cc1", "meas_value": 0.593}
{"compound": "CNC(C)C(O)c1ccccc1 (stereo unspecified)", "meas_value": 0.993}
{"compound": "FC(F)(F)c1ccc(Cl)c(NC(=S)NN=C2CCCCCC2)c1", "meas_value": 0.61}
{"compound": "C[C@@H]([C@H](O)c1ccccc1)N(C)C", "meas_value": 1}

// moving on: another record for normalized growth
Please give the documented normalized growth of NC(=NCCC[C@H](N)C(=O)O)N[N+](=O)[O-]
0.974
